target: hMRG-X1 receptor (Homo sapiens, UniProt Q96LB2); assay: Whole cell receptor binding assay with 3H-BAM in CHO-hMRG-X1-NFAT-BLA cells; details: IC50 Binding, 10 nM 3H-BAM, 4° C.
Sequence (Q96LB2 whole entry): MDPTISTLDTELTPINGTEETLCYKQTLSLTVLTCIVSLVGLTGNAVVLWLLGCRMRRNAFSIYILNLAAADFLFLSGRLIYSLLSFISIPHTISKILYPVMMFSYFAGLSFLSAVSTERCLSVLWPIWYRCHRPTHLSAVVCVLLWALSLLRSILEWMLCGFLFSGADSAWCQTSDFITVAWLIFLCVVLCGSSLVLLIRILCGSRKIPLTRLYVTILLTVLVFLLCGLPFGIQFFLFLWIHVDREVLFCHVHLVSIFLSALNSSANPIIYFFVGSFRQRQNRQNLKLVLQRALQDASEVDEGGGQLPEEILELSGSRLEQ
readout: IC50 (nM)
Value expressed in nM; do not type the unit.

Recorded IC50, per entry:
>  <molecule>
O=C(Nc1cccc([N+](=O)[O-])c1)OC1C2CCN(CC2)C1C(c1ccccc1)c1ccccc1 (centres unmarked) [Compound 13]

>  <subject_of_test>
hMRG-X1 receptor (Homo sapiens, UniProt Q96LB2)

>  <readout>
IC50

>  <numeric_result>
1850

$$$$
>  <molecule>
O=C(Nc1cccc2ccccc12)OC1C2CCN(CC2)C1C(c1ccccc1)c1ccccc1 (centres unmarked) [Compound 5]

>  <subject_of_test>
hMRG-X1 receptor (Homo sapiens, UniProt Q96LB2)

>  <readout>
IC50

>  <numeric_result>
1220

$$$$
>  <molecule>
O=C(Nc1ccccc1Cl)OC1C2CCN(CC2)C1C(c1ccccc1)c1ccccc1 (centres unmarked) [Compound 14]

>  <subject_of_test>
hMRG-X1 receptor (Homo sapiens, UniProt Q96LB2)

>  <readout>
IC50

>  <numeric_result>
1180

$$$$
>  <molecule>
O=C(OC1C2CCN(CC2)C1C(c1ccccc1)c1ccccc1)c1ccccc1C(F)(F)F (centres unmarked) [Compound 12]

>  <subject_of_test>
hMRG-X1 receptor (Homo sapiens, UniProt Q96LB2)

>  <readout>
IC50

>  <numeric_result>
2400

$$$$

As a next step, examine the molecule that follows.
# input What does the record list as IC50 for O=C(Nc1ccccc1Cl)OC1C2CCN(CC2)C1C(c1ccccc1)c1ccccc1 (centres unmarked) [Compound 6] ?
# output 607

----------
target: hMRG-X1 receptor (Homo sapiens); experiment: Beta-lactamase (BLA) reporter-gene assay in CHO-hMRG-X1-NFAT/BLA cells; format: cell-based; conditions: antagonism of BAM15-induced BLA response; read-out: IC50 BLA
# reported pIC50; entries follow
Convention used: pIC50 is expressed as -log10 of the molar concentration.

Illustrative cases are given below, each with its answer.
>  <molecule>
OC(C=C1C2CCN(CC2)C1C(c1ccccc1)c1ccccc1)c1cccc(C(F)(F)F)c1 (stereo not drawn)

>  <pIC50>
7.05

$$$$
>  <molecule>
COc1ccccc1NC(=S)NC1C2CCN(CC2)C1C(c1ccccc1)c1ccccc1 (stereo not drawn)

>  <pIC50>
6.38

$$$$
>  <molecule>
FC(F)(F)c1ccccc1CNC1C2CCN(CC2)C1C(c1ccccc1)c1ccccc1 (stereo not drawn)

>  <pIC50>
6.61

$$$$
>  <molecule>
Cc1cc(C)cc(C(O)C=C2C3CCN(CC3)C2C(c2ccccc2)c2ccccc2)c1 (stereo not drawn)

>  <pIC50>
6.70

$$$$
>  <molecule>
N#Cc1cccc(COC2C3CCN(CC3)C2C(c2ccccc2)c2ccccc2)c1 (stereo not drawn)

>  <pIC50>
6.68

$$$$
>  <molecule>
COc1ccccc1C(O)C=C1C2CCN(CC2)C1C(c1ccccc1)c1ccccc1 (stereo not drawn)

>  <pIC50>
7.10

$$$$
>  <molecule>
N#Cc1ccc(COC2C3CCN(CC3)C2C(c2ccccc2)c2ccccc2)cc1 (stereo not drawn)

>  <pIC50>
6.25

$$$$
>  <molecule>
OC(C=C1C2CCN(CC2)C1C(c1ccccc1)c1ccccc1)c1ccc(F)cc1 (stereo not drawn)

>  <pIC50>
6.78

$$$$

# input Would you kindly share the measured pIC50 for C(Cc1ccccc1)=C1C2CCN(CC2)C1C(c1ccccc1)c1ccccc1 (stereo not drawn) ?
# output 6.79

Data credit: patent US20080027095A1
